Values were extracted from ChEMBL document CHEMBL4699609.

Each entry below lists one item and its recorded pKi value.
molecular target: Protein kinase C alpha type (Mus musculus); test: Displacement of [3H]-PDBu from PKCalpha C1A domain in CD-1 mouse brain cytosol
For clarity, pKi is expressed as the negative log10 of concentration in mol/L.

[[record]]
smiles_notation = "C[C@H]1[C@@H]2C[C@@]3(O[C@H](CCC3(C)C)CC(=O)O[C@@H](CO)CC(=O)O2)O[C@@H]1CCCCc1cccc2cc(O)ccc12"
result_number = 8.19


From here, focus on the item given below.
Q) Enter reported pKi observed with Protein kinase C alpha type (Mus musculus) for C[C@H]1[C@@H]2C[C@@]3(O[C@H](CCC3(C)C)CC(=O)O[C@@H](CO)CC(=O)O2)O[C@@H]1CCCCc1cccc2cc(OCc3ccccc3)ccc12
A) 8.12
